Test system: P. aeruginosa A9843
Assay: MIC, serial two-fold agar dilution, Mueller-Hinton agar
Type: cell-based
Conditions: Pseudomonas aeruginosa; P. aeruginosa A9843; agar dilution, Mueller-Hinton agar; read-out: MIC
Method: Minimum inhibitory concentrations (MIC) of BB-P 652, BB-P 660 and BB-P 661 were determined by serial two-fold agar dilution method using Steer's apparatus on Mueller-Hinton agar plates against S. aureus (6 strains), cephalothinsensitive gram-negative (Gn-I, 13 strains), cephalothinresistant gram-negative (Gn-II, 6 strains) and Ps. aeruginosa (64 strains). The results are shown in Tables 1 and 2 along with piperacillin and carbenicillin.

compound | value.comparator | MIC [µg/mL]
CC1(C)S[C@@H]2[C@H](NC(=O)C(C(=O)O)c3ccccc3)C(=O)N2[C@H]1C(=O)O (stereo partly shown) [carbenicillin, reference compound] | = | 100
CCN1CCN(C(=O)N[C@@H](C(=O)N[C@@H]2C(=O)N3[C@@H]2SC(C)(C)[C@@H]3C(=O)O)c2ccccc2)C(=O)C1=O [piperacillin, reference compound] | = | 6.3
CCN1CCN(C(=O)N[C@H](C(=O)N[C@@H]2C(=O)N3[C@@H]2SC(C)(C)[C@@H]3C(=O)O)c2ccc(O)c(O)c2)C(=O)C1=O | > | 100
CCN1CCN(C(=O)N[C@@H](C(=O)N[C@@H]2C(=O)N3[C@@H]2SC(C)(C)[C@@H]3C(=O)O)c2ccc(O)c(O)c2)C(=O)C1=O | = | 0.8
